Molecular target: Histone deacetylase 3 (Homo sapiens, UniProt O15379)
Sequence (O15379 whole entry, the tested form may be a part): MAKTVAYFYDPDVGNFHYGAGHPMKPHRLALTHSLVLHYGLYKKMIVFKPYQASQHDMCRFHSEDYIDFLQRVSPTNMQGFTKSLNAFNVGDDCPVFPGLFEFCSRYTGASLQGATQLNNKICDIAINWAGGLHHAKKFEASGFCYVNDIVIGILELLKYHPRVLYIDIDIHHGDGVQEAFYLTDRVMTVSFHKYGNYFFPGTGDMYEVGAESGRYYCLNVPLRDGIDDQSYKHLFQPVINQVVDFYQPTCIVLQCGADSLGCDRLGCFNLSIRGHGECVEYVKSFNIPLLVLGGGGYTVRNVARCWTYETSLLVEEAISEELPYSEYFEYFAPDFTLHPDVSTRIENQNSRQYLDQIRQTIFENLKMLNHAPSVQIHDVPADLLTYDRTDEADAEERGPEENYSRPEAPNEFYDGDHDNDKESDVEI
Assay: Inhibition of HDAC3 using p53 (379 to 382 residues) based fluorogenic peptide substrate
As shown below, each of these molecules has a reported IC50 value.
property-name: IC50 (nM)

[[record]]
entry_smiles = "CN1C[C@H](C(=O)Nc2ccc(Cl)cc2)[C@@H](c2ccc(/C=C/C(=O)Nc3ccccc3N)cc2)C1"
value_measured = 230

[[record]]
entry_smiles = "CN1C[C@@H](C(=O)Nc2ccc(Cl)cc2)[C@H](c2ccc(/C=C/C(=O)Nc3ccccc3N)cc2)C1"
value_measured = 200


---

Each entry below carries its reported IC50.
Target: Cytochrome P450 3A4 (Homo sapiens, UniProt P08684)
Sequence (P08684 whole entry): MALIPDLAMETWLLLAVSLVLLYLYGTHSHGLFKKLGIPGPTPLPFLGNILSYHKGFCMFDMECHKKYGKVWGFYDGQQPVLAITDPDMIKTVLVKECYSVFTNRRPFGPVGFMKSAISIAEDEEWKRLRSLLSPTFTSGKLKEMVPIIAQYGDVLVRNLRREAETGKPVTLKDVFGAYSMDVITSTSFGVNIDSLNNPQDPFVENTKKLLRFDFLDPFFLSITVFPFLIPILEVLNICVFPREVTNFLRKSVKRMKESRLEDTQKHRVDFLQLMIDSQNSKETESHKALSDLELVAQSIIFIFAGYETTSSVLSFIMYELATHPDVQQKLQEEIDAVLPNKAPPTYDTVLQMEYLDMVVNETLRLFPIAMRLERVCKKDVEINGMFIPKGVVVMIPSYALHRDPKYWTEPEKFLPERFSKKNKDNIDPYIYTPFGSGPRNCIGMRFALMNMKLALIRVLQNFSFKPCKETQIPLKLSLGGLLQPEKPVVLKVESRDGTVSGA
property-name: IC50 (µM)

[[record]]
molecule = "CN1C[C@@H](C(=O)Nc2ccc(Cl)cc2)[C@H](c2ccc(/C=C/C(=O)Nc3ccccc3N)cc2)C1"
property_name = "IC50"
unit_symbol = "µM"
value_measured = 21

[[record]]
molecule = "CN1C[C@H](C(=O)Nc2ccc(Cl)cc2)[C@@H](c2ccc(/C=C/C(=O)Nc3ccccc3N)cc2F)C1 (racemic)"
property_name = "IC50"
unit_symbol = "µM"
value_measured = 4


---

Recorded Cmax by entry
Experiment: Cmax in BALB/C mouse at 5 mg/kg, po or 1 mg/kg, iv by LC-MS/MS method
Type: ADME, organism-based
Settings: in vivo
property-name: Cmax

[[record]]
compound = "CN1C[C@H](C(=O)Nc2ccc(Cl)cc2)[C@@H](c2ccc(/C=C/C(=O)Nc3ccccc3N)cn2)C1 (racemic)"
property_name = "Cmax"
value_measured = "60 ng/mL"

[[record]]
compound = "CN1C[C@H](C(=O)Nc2ccc(F)cc2)[C@@H](c2ccc(/C=C/C(=O)Nc3ccccc3N)cc2)C1 (racemic)"
property_name = "Cmax"
value_measured = "170 ng/mL"


---

Reported CLhep predicted at 1 µM values for a set of compounds
Test: Clearance in human liver microsomes at 1 uM incubated for 10 mins by LC-MS/MS method
Type: ADME, Microsome
property-name: CLhep predicted at 1 µM (mL/min/kg)

[[record]]
compound = "Cc1cc(NC(=O)[C@H]2CN(C)C[C@@H]2c2ccc(/C=C/C(=O)Nc3ccccc3N)cc2)ccc1F (racemic)"
property_name = "CLhep predicted at 1 µM"
unit_symbol = "mL/min/kg"
value_measured = 15

[[record]]
compound = "CN1C[C@H](C(=O)Nc2ccc(C(F)(F)F)cc2)[C@@H](c2ccc(/C=C/C(=O)Nc3ccccc3N)cc2)C1 (racemic)"
property_name = "CLhep predicted at 1 µM"
unit_symbol = "mL/min/kg"
value_measured = 6

[[record]]
compound = "CN1C[C@H](C(=O)Nc2ccccn2)[C@@H](c2ccc(/C=C/C(=O)Nc3ccccc3N)cc2)C1 (racemic)"
property_name = "CLhep predicted at 1 µM"
unit_symbol = "mL/min/kg"
value_measured = 8

[[record]]
compound = "CC(C)NC(=O)[C@H]1CN(C)C[C@@H]1c1ccc(/C=C/C(=O)Nc2ccccc2N)cc1 (racemic)"
property_name = "CLhep predicted at 1 µM"
unit_symbol = "mL/min/kg"
value_measured = 8

[[record]]
compound = "CCNC(=O)N1C[C@H](C(=O)Nc2ccc(Cl)cc2)[C@@H](c2ccc(/C=C/C(=O)Nc3ccccc3N)cc2)C1 (racemic)"
property_name = "CLhep predicted at 1 µM"
unit_symbol = "mL/min/kg"
value_measured = 9

[[record]]
compound = "CN1C[C@H](C(=O)Nc2cccc(F)c2)[C@@H](c2ccc(/C=C/C(=O)Nc3ccccc3N)cc2)C1 (racemic)"
property_name = "CLhep predicted at 1 µM"
unit_symbol = "mL/min/kg"
value_measured = 6

[[record]]
compound = "Cc1cc(NC(=O)[C@H]2CN(C)C[C@@H]2c2ccc(/C=C/C(=O)Nc3ccccc3N)cc2)ccc1Cl (racemic)"
property_name = "CLhep predicted at 1 µM"
unit_symbol = "mL/min/kg"
value_measured = 15

[[record]]
compound = "CN1C[C@H](C(=O)Nc2ccc(Cl)cc2)[C@@H](c2cnc(/C=C/C(=O)Nc3ccccc3N)cn2)C1 (racemic)"
property_name = "CLhep predicted at 1 µM"
unit_symbol = "mL/min/kg"
value_measured = 11

[[record]]
compound = "CC(C)(CO)N1C[C@H](C(=O)Nc2ccc(Cl)cc2)[C@@H](c2ccc(/C=C/C(=O)Nc3ccccc3N)cc2)C1 (racemic)"
property_name = "CLhep predicted at 1 µM"
unit_symbol = "mL/min/kg"
value_measured = 12

[[record]]
compound = "CC(C)(C)N1C[C@H](C(=O)Nc2ccc(Cl)cc2)[C@@H](c2ccc(/C=C/C(=O)Nc3ccccc3N)cc2)C1 (racemic)"
property_name = "CLhep predicted at 1 µM"
unit_symbol = "mL/min/kg"
value_measured = 8

[[record]]
compound = "CC(C)c1ccc(NC(=O)[C@H]2CN(C)C[C@@H]2c2ccc(/C=C/C(=O)Nc3ccccc3N)cc2)cc1 (racemic)"
property_name = "CLhep predicted at 1 µM"
unit_symbol = "mL/min/kg"
value_measured = 10

[[record]]
compound = "CN1C[C@H](C(=O)Nc2ccc(Br)cc2)[C@@H](c2ccc(/C=C/C(=O)Nc3ccccc3N)cc2)C1 (racemic)"
property_name = "CLhep predicted at 1 µM"
unit_symbol = "mL/min/kg"
value_measured = 3

[[record]]
compound = "CN1C[C@H](C(=O)Nc2ccccc2F)[C@@H](c2ccc(/C=C/C(=O)Nc3ccccc3N)cc2)C1 (racemic)"
property_name = "CLhep predicted at 1 µM"
unit_symbol = "mL/min/kg"
value_measured = 10

[[record]]
compound = "CC(C)(O)CN1C[C@H](C(=O)Nc2ccc(Cl)cc2)[C@@H](c2ccc(/C=C/C(=O)Nc3ccccc3N)cc2)C1 (racemic)"
property_name = "CLhep predicted at 1 µM"
unit_symbol = "mL/min/kg"
value_measured = 14

[[record]]
compound = "CN1C[C@H](C(=O)Nc2ccc(Cl)cc2)[C@@H](c2ccc(/C=C/C(=O)Nc3ccccc3N)cc2F)C1 (racemic)"
property_name = "CLhep predicted at 1 µM"
unit_symbol = "mL/min/kg"
value_measured = 14

[[record]]
compound = "CN1C[C@H](C(=O)Nc2ccc(Cl)cc2)[C@@H](c2ccc(/C=C/C(=O)Nc3ccccc3N)cn2)C1 (racemic)"
property_name = "CLhep predicted at 1 µM"
unit_symbol = "mL/min/kg"
value_measured = 6

[[record]]
compound = "COCCN1C[C@H](C(=O)Nc2ccc(Cl)cc2)[C@@H](c2ccc(/C=C/C(=O)Nc3ccccc3N)cc2)C1 (racemic)"
property_name = "CLhep predicted at 1 µM"
unit_symbol = "mL/min/kg"
value_measured = 6

[[record]]
compound = "CN1C[C@H](C(=O)Nc2ccc(F)cc2F)[C@@H](c2ccc(/C=C/C(=O)Nc3ccccc3N)cc2)C1 (racemic)"
property_name = "CLhep predicted at 1 µM"
unit_symbol = "mL/min/kg"
value_measured = 12

[[record]]
compound = "CN1C[C@H](C(=O)Nc2ccc(Cl)cc2F)[C@@H](c2ccc(/C=C/C(=O)Nc3ccccc3N)cc2)C1 (racemic)"
property_name = "CLhep predicted at 1 µM"
unit_symbol = "mL/min/kg"
value_measured = 11

[[record]]
compound = "CN1C[C@H](C(=O)Nc2ccc(C#N)cc2)[C@@H](c2ccc(/C=C/C(=O)Nc3ccccc3N)cc2)C1 (racemic)"
property_name = "CLhep predicted at 1 µM"
unit_symbol = "mL/min/kg"
value_measured = 1

[[record]]
compound = "CCN1C[C@H](C(=O)Nc2ccc(Cl)cc2)[C@@H](c2ccc(/C=C/C(=O)Nc3ccccc3N)cc2)C1 (racemic)"
property_name = "CLhep predicted at 1 µM"
unit_symbol = "mL/min/kg"
value_measured = 12

[[record]]
compound = "Nc1ccccc1NC(=O)/C=C/c1ccc([C@H]2CN(CC(F)(F)F)C[C@@H]2C(=O)Nc2ccc(Cl)cc2)cc1 (racemic)"
property_name = "CLhep predicted at 1 µM"
unit_symbol = "mL/min/kg"
value_measured = 15

[[record]]
compound = "COc1ccc(NC(=O)[C@H]2CN(C)C[C@@H]2c2ccc(/C=C/C(=O)Nc3ccccc3N)cc2)cc1 (racemic)"
property_name = "CLhep predicted at 1 µM"
unit_symbol = "mL/min/kg"
value_measured = 14

[[record]]
compound = "CN1C[C@H](C(=O)Nc2ccc(Cl)cc2)[C@@H](c2ccc(/C=C/C(=O)Nc3ccccc3N)nn2)C1 (racemic)"
property_name = "CLhep predicted at 1 µM"
unit_symbol = "mL/min/kg"
value_measured = 12

[[record]]
compound = "N#CCN1C[C@H](C(=O)Nc2ccc(Cl)cc2)[C@@H](c2ccc(/C=C/C(=O)Nc3ccccc3N)cc2)C1 (racemic)"
property_name = "CLhep predicted at 1 µM"
unit_symbol = "mL/min/kg"
value_measured = 17

[[record]]
compound = "CN1C[C@H](C(=O)NC2CCCC2)[C@@H](c2ccc(/C=C/C(=O)Nc3ccccc3N)cc2)C1 (racemic)"
property_name = "CLhep predicted at 1 µM"
unit_symbol = "mL/min/kg"
value_measured = 9

[[record]]
compound = "CN1C[C@H](C(=O)Nc2ccc(Cl)c(Cl)c2)[C@@H](c2ccc(/C=C/C(=O)Nc3ccccc3N)cc2)C1 (racemic)"
property_name = "CLhep predicted at 1 µM"
unit_symbol = "mL/min/kg"
value_measured = 14

[[record]]
compound = "CN1C[C@H](C(=O)Nc2ccccc2)[C@@H](c2ccc(/C=C/C(=O)Nc3ccccc3N)cc2)C1 (racemic)"
property_name = "CLhep predicted at 1 µM"
unit_symbol = "mL/min/kg"
value_measured = 7

[[record]]
compound = "Cc1ccc(NC(=O)[C@H]2CN(C)C[C@@H]2c2ccc(/C=C/C(=O)Nc3ccccc3N)cc2)cn1 (racemic)"
property_name = "CLhep predicted at 1 µM"
unit_symbol = "mL/min/kg"
value_measured = 8

